Documented self-cleavage across a set of variants
B1: Osa-1-4 twister ribozyme (parent)
chain: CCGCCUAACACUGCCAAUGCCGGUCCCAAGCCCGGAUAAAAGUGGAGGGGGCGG

variants of: B1; experiment: self-cleavage, relative activity (ratio to wild type); higher = more cleavage; co-transcriptional
observation type: self-cleavage

>>> reading("A29G G50U")
0.17
>>> reading("C15A C52U")
0.57
>>> reading("A8U U24A")
0.03
